These data points were gathered from paper PMC11277439.

- experimentalSystem: recombinant human LPLA2 (hLPLA2) (Homo sapiens)
- Construct: gene PLA2G15; recombinant human enzyme from Proteos
- experimentNotes: oleic acid release from liposomes, HPTLC
- Type: biochemical
- settings: DODPC/S,S-(3,3′,C18:1)-BMP liposomes (2.3:1), 50 mM sodium acetate pH 4.5, 37°C, 5 min pre-incubation of drug with liposomes; read-out: Lipase Inhibition IC50 μM (BMP)^g
recordedEndpoint: IC50 (µM)
Numbers only; they are read as µM.

Please report the recorded IC50 for CC(C)(C)c1ccc(CN2CCN(C(c3ccccc3)c3ccc(Cl)cc3)CC2)cc1 (stereo not drawn) .
16

Now try "CCCCc1oc2ccccc2c1C(=O)c1cc(I)c(OCCN(CC)CC)c(I)c1" .
18

====

- experimentalSystem: recombinant human LPLA2 (hLPLA2) (Homo sapiens, UniProt Q8NCC3)
- Construct: gene PLA2G15; recombinant human enzyme from Proteos
- Sequence (Q8NCC3 34-412): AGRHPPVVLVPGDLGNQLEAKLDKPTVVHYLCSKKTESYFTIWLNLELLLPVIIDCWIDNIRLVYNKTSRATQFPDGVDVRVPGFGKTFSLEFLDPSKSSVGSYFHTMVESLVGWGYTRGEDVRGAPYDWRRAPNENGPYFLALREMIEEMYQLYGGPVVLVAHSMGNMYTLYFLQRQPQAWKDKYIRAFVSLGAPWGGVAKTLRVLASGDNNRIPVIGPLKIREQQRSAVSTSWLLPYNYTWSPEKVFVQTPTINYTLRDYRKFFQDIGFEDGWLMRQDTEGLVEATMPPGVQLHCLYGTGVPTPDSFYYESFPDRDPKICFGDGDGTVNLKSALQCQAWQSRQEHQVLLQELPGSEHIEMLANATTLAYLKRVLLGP
- experimentNotes: oleic acid release from liposomes, HPTLC
- Format: biochemical
- settings: DODPC/S,S-(3,3′,C18:1)-BMP liposomes (2.3:1), 50 mM sodium acetate pH 4.5, 37°C, 5 min pre-incubation of drug with liposomes; read-out: Lipase Inhibition IC50 μM (BMP)^g
We begin with a simple list: items and their reported IC50.
Numbers only; they are read as µM.

{"compound": "NCC[C@H](Oc1ccc(C(F)(F)F)cc1)c1ccccc1", "IC50 (µM)": 20.9}
{"compound": "CC[C@H](NC(=O)c1c(C)c(-c2ccccc2)nc2ccccc12)c1ccccc1", "IC50 (µM)": 28.7}
{"compound": "C1CCC(C(CC2CCCCN2)C2CCCCC2)CC1 (stereo not shown)", "IC50 (µM)": 31.1}

Consider the record given below.
Please report the recorded IC50 for "CN(CCCN1c2ccccc2CCc2ccccc21)CC(=O)c1ccc(Cl)cc1" .
41.7

====

- experimentalSystem: recombinant human LPLA2 (hLPLA2) (Homo sapiens, UniProt Q8NCC3)
- Construct: gene PLA2G15; recombinant human enzyme from Proteos
- experimentNotes: oleic acid release from liposomes, HPTLC
- Assay type: biochemical
- settings: DODPC/S,S-(3,3′,C18:1)-BMP liposomes (2.3:1), 50 mM sodium acetate pH 4.5, 37°C, 5 min pre-incubation of drug with liposomes; read-out: Lipase Inhibition IC50 μM (BMP)^g
We begin with a simple list: items and their reported IC50.
Numbers only; they are read as µM.

{"compound": "CC(C)NCC(O)COc1cccc2ccccc12 (stereo not shown)", "experimentalSystem": "recombinant human LPLA2 (hLPLA2) (Homo sapiens, UniProt Q8NCC3)", "IC50 / µM": 45.8}
{"compound": "CCN(CC)C(C)CN1c2ccccc2Sc2ccccc21 (stereo not shown)", "experimentalSystem": "recombinant human LPLA2 (hLPLA2) (Homo sapiens, UniProt Q8NCC3)", "IC50 / µM": 40.9}
{"compound": "CC/C(=C(\\c1ccccc1)c1ccc(OCCN(C)C)cc1)c1ccccc1", "experimentalSystem": "recombinant human LPLA2 (hLPLA2) (Homo sapiens, UniProt Q8NCC3)", "IC50 / µM": 20.1}
{"compound": "CN(C)CCC=C1c2ccccc2C=Cc2ccccc21", "experimentalSystem": "recombinant human LPLA2 (hLPLA2) (Homo sapiens, UniProt Q8NCC3)", "IC50 / µM": 13.2}
{"compound": "O=C(c1ccc(OCCN2CCCCC2)cc1)c1c(-c2ccc(O)cc2)sc2cc(O)ccc12", "experimentalSystem": "recombinant human LPLA2 (hLPLA2) (Homo sapiens, UniProt Q8NCC3)", "IC50 / µM": 50.6}

Form field: IC50 recorded for "O=C(O)[C@@H]1C[C@@H](C2CCCCC2)CN1C(=O)CP(=O)(O)CCCCc1ccccc1" with recombinant human LPLA2 (hLPLA2) (Homo sapiens, UniProt Q8NCC3) (enter value)
39.9

Now try CCOC(=O)C1=C(COCCN)NC(C)=C(C(=O)OC)C1c1ccccc1Cl (stereo not shown) .
24
